Values from patent US9266940

TARGET_OR_SYSTEM: T1, human GLP-1 receptor (human, UniProt P43220 24-463)
T1 construct: whole, on cells; Used as purified plasma membranes of the stably transfected BHK cell line, not as intact cells; also called hGLP-1
EXPERIMENTAL_PROTOCOL: SPA, displacement of 125I-GLP-1(7-36)NH2 from hGLP-1R BHK membranes, low HSA (0.001%)
Numbered stars: 1 amine (or outer) side, 2 acyl side, 3 side chain; on linkers, the order of the positions; unused ones are H or OH. Square brackets hold non-standard residues; d marks the D form. Side chains are listed from the residue outwards. Ends that are not written are not given here. * marks the point of attachment. Decanoyl(10-(4-HOOC-PhO)) = O=C(O)c1ccc(OCCCCCCCCCC(=O)*)cc1; γGlu = O=C(O)[C@H](CCC(=O)[*:2])N[*:1]; C14 diacid = O=C(O)CCCCCCCCCCCCC(=O)*; AEEA = NCCOCCOCC(=O)O; Aib = CC(C)(N)C(=O)O
PARAMETER: IC50 (nM)
Write the value in nM as a bare number.

Consider the binder HAEGTFTSDVSSYLEGQAVRK([AEEA-AEEA-γGlu-γGlu-Decanoyl(10-(4-HOOC-PhO))])FIAWLVQGK([AEEA-AEEA-γGlu-γGlu-Decanoyl(10-(4-HOOC-PhO))])G (also called 23) and give its measured IC50.
0.85

Record: "HAEGTFTSDVSSYLEEQAARK([AEEA-AEEA-γGlu-Decanoyl(10-(4-HOOC-PhO))])FIEWLVRGK([AEEA-AEEA-γGlu-Decanoyl(10-(4-HOOC-PhO))])GEG"
0.39

Try H[Aib]EGTFTSDVSSYLEEQAARK([AEEA-AEEA-γGlu-Decanoyl(10-(4-HOOC-PhO))])FIEWLVRGK([AEEA-AEEA-γGlu-Decanoyl(10-(4-HOOC-PhO))])GEG (also called 31) next.
0.35

Please give the result for HAEGTFTSDVSSYLEEEAVRK([AEEA-AEEA-γGlu-C14 diacid])FIAHLVQGRK([AEEA-AEEA-γGlu-C14 diacid]) (also called 17) too.
0.45

Would you mind doing H[Aib]EGTFTSDVSSYLEK([AEEA-AEEA-γGlu-C14 diacid])QAVRK([AEEA-AEEA-γGlu-C14 diacid])FIAHLVRGRG as well?
0.12

What do we get for HAEGTFTSDVSSYLEEQK([AEEA-AEEA-γGlu-Decanoyl(10-(4-HOOC-PhO))])VRK([AEEA-AEEA-γGlu-Decanoyl(10-(4-HOOC-PhO))])FIAWLVRGRG (also called 28) ?
0.2

Moving on to "H[Aib]EGTFTSDVSSYK([AEEA-AEEA-γGlu-Decanoyl(10-(4-HOOC-PhO))])EEQAARK([AEEA-AEEA-γGlu-Decanoyl(10-(4-HOOC-PhO))])FIEWLVG"
5.68

Now consider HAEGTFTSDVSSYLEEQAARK([AEEA-AEEA-γGlu-Decanoyl(10-(4-HOOC-PhO))])FIAWLVRGK([AEEA-AEEA-γGlu-Decanoyl(10-(4-HOOC-PhO))]) (ends and bridges not checked) and answer again.
0.29
